Biological target: hMAO-A (Homo sapiens)
Sequence (P21397 whole entry): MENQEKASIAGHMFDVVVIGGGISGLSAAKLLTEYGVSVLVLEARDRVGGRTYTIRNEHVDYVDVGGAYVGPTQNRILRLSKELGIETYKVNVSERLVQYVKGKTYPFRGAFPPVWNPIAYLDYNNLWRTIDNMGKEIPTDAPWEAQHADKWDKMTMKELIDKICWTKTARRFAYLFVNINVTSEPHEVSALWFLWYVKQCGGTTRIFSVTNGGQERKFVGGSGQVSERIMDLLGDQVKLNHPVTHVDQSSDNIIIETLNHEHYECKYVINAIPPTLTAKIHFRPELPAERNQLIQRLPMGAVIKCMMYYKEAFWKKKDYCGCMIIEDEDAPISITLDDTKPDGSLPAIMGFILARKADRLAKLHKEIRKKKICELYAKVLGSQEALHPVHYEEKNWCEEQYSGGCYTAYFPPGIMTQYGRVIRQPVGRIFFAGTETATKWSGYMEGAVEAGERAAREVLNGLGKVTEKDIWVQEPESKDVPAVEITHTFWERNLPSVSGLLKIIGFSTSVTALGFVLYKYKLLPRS
Assay: hMAO-A inhibition (kynuramine to 4-hydroxyquinoline, microsomal recombinant enzyme)
READOUT NAME: IC50 (µM)
Answers are plain numbers, in µM.

CCN(C)C(=O)Oc1cccc(NC(=O)c2ccc3[nH]c(-c4ccccc4O)nc3c2)c1 | 0.74

// batch mode: one IC50 value per listed entry
1. CCN(C)C(=O)Oc1ccc(CCCNC(=O)c2ccc3[nH]c(-c4ccccc4O)nc3c2)cc1
2. CCN(C)C(=O)Oc1cccc(CNC(=O)c2ccc3[nH]c(-c4ccccc4O)nc3c2)c1

1: 11; 2: 8.6

---

Would you kindly list inhibition at 10 µM for each of these molecules?
Molecular target: hMAO-B (Homo sapiens)
Construct: purchased Sigma-Aldrich Quimica S.A., Madrid, Spain; host or cells: insect cells (BTI-TN-5B1-4) infected with recombinant baculovirus
Sequence (P27338 1-520): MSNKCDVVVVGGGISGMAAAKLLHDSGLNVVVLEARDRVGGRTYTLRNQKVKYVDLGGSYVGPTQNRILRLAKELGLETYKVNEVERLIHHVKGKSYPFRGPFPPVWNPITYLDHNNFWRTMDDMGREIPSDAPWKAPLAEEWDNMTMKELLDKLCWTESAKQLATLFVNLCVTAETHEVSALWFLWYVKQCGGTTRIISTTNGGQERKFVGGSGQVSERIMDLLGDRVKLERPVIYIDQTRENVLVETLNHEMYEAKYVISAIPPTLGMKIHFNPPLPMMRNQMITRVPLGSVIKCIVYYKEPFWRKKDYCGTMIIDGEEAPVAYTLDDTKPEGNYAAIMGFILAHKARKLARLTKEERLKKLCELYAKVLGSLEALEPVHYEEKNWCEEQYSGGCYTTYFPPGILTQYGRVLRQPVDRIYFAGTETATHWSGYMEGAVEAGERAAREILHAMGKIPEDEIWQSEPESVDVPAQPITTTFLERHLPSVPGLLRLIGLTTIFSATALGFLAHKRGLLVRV
Experiment: hMAO-B inhibition (kynuramine to 4-hydroxyquinoline, microsomal recombinant enzyme)
Assay type: biochemical
Answers are plain numbers, in %.

CCN(C)C(=O)Oc1cccc(CCNC(=O)c2ccc3[nH]c(-c4ccccc4O)nc3c2)c1 | 33
CCN(C)C(=O)Oc1cccc(CNC(=O)c2cccc3[nH]c(-c4ccccc4O)nc23)c1 | 34
CCN(C)C(=O)Oc1cccc(NC(=O)c2ccc3[nH]c(-c4ccccc4O)nc3c2)c1 | 28
CCN(C)C(=O)Oc1cccc(CNC(=O)c2ccc3[nH]c(-c4ccccc4O)nc3c2)c1 | 43
CCN(C)C(=O)Oc1cccc(NC(=O)c2cccc3[nH]c(-c4ccccc4O)nc23)c1 | 31

Here's the next entry for you.
Tell me the measured inhibition at 10 µM of CCN(C)C(=O)Oc1ccc(CCCNC(=O)c2ccc3[nH]c(-c4ccccc4O)nc3c2)cc1 , please.
43
